MIC overview
Tested on: Staphylococcus aureus
TEST_DETAILS: Antibacterial activity against methicillin-resistant Staphylococcus aureus 224001 clinical isolate after 20 to 24 hrs by two-fold microdilution method
Type: functional
Just the number please, in µg/mL, no unit attached.

CN1CCN(CCCCCCOC(=O)c2c3c(n4cc(Br)ccc24)C(=O)c2ncccc2C3=O)CC1 | 0.5
O=C1c2cccnc2C(=O)c2c1c(C(=O)OCCCCCN1CCOCC1)c1ccc(Br)cn21 | 0.25
O=C1c2cccnc2C(=O)c2c1c(C(=O)OCCCCCCN1CCCCC1)c1ccc(Br)cn21 | 0.125
O=C1c2cccnc2C(=O)c2c1c(C(=O)OCCCCN1CCOCC1)c1ccc(Br)cn21 | 1

Now, please, on to the next compound.
stdin: Field: MIC (Staphylococcus aureus). Entry: CN(C)CCCCCOC(=O)c1c2c(n3cc(Br)ccc13)C(=O)c1ncccc1C2=O
stdout: 0.5
